This collection of values is drawn from patent US9593122B2.

- System: Digitaria ciliaris
- protocol-description: Farming soil treatment test
- Assay type: in vivo
- study-conditions: 10g a.i./10a; soil surface spray prior to weed growth, 30 days
measured-quantity: Digitaria ciliaris herbicidal efficacy (growth inhibition level)

compound | experimental-value
C#CCN(C(=O)C(F)(F)F)c1c(C#N)cnn1-c1nn2c(c1Cl)CCCC2 [Control agent 4.239, reference compound] | 5 (5: 50% to less than 60%)
C=C(Cl)CNc1c([N+](=O)[O-])cnn1-c1nn2c(c1Cl)CCCC2 | 10 (10: 100%)
CC=CCNc1c(C#N)cnn1-c1nn2c(c1Cl)CCCC2 (mixture of isomers) | 10 (10: 100%)
O=[N+]([O-])c1cnn(-c2nn3c(c2Cl)CCCC3)c1NC/C=C\Cl | 10 (10: 100%)
C=C(Cl)CN(C(=O)C(F)(F)F)c1c(C#N)cnn1-c1nn2c(c1Cl)CCCC2 | 10 (10: 100%)
C=CCN(CC)c1c(C#N)cnn1-c1nn2c(c1Cl)CCCC2 [Control agent 4.75, reference compound] | 4 (4: 40% to less than 50%)
N#Cc1cnn(-c2nn3c(c2Cl)CCCC3)c1N(C/C=C\Cl)C(=O)C(F)(F)F | 10 (10: 100%)
CC=CCN(C(=O)C(F)(F)F)c1c(C#N)cnn1-c1nn2c(c1Cl)CCCC2 (mixture of isomers) | 10 (10: 100%)
C#CCNc1c(C#N)cnn1-c1nn2c(c1Cl)CCCC2 [Control agent 4.85, 4.156, reference compound] | 4 (4: 40% to less than 50%)
C=CCNc1c(C#N)cnn1-c1nn2c(c1Cl)CCCC2 [Control agent 4.59, reference compound] | 6 (6: 60% to less than 70%)
